# ASSAY_SYSTEM: CCK-1 receptors (Rattus norvegicus)
# Construct: The pancreatic acini obtained from the outbred male rat pancreas of the Sprague Dawley strain; from tissue; host or cells: isolated pancreatic acini of male Sprague Dawley rats
# Sequence (P30551 whole entry): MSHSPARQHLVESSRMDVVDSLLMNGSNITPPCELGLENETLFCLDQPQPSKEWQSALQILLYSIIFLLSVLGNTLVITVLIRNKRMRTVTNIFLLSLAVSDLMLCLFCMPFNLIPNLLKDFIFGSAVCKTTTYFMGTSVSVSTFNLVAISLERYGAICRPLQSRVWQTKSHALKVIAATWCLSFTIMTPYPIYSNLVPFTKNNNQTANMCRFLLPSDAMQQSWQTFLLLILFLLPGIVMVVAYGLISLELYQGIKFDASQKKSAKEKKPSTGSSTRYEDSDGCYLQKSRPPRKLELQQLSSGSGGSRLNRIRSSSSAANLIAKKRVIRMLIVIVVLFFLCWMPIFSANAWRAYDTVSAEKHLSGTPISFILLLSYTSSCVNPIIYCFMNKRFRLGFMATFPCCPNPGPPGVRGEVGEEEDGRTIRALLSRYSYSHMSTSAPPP
# METHOD_NOTES: Inhibition of binding of [125I]-BH-CCK-8 to isolated rat pancreatic acini
# COND: 30 minutes at 37° C.; at least 3 experiments; read-out: IC50, inhibition of binding of [125I]-BH-CCK-8 to isolated rat pancreatic acini
Mark Met only for IC50 values smaller than 0.09 µM; exact matches and larger values are Not met.

COMPOUND: COc1ccccc1CCC(NC(=O)c1ccccc1NC(=O)c1cc2cc(F)ccc2[nH]1)C(=O)O (centres unmarked) [Compound 32]
ASSAY_SYSTEM: CCK-1 receptors (Rattus norvegicus)
CLASS: Met
//
COMPOUND: O=C(Nc1ccccc1C(=O)NC(Cc1ccccc1Cl)C(=O)O)c1cc2ccccc2[nH]1 (centres unmarked) [Compound 13]
ASSAY_SYSTEM: CCK-1 receptors (Rattus norvegicus)
CLASS: Not met
//
COMPOUND: CCC(CC)CC(NC(=O)c1ccccc1NC(=O)c1cc2ccccc2[nH]1)C(=O)O (centres unmarked) [Compound 46]
ASSAY_SYSTEM: CCK-1 receptors (Rattus norvegicus)
CLASS: Met
//
COMPOUND: O=C(Nc1ccccc1C(=O)NC(CCc1ccccc1)C(=O)O)c1cc2cc(F)ccc2[nH]1 (centres unmarked) [Compound 23]
ASSAY_SYSTEM: CCK-1 receptors (Rattus norvegicus)
CLASS: Met
//
COMPOUND: CCC(NC(=O)c1ccccc1NC(=O)c1cc2ccccc2n1C)C(=O)O (centres unmarked) [Compound 35]
ASSAY_SYSTEM: CCK-1 receptors (Rattus norvegicus)
CLASS: Not met
//
COMPOUND: O=C(Nc1ccccc1C(=O)NC(Cc1ccccc1)C(=O)O)c1cc2cc(F)ccc2[nH]1 (centres unmarked) [Compound 6]
ASSAY_SYSTEM: CCK-1 receptors (Rattus norvegicus)
CLASS: Met
//
COMPOUND: O=C(Nc1ccccc1C(=O)NC(CC1CCCCC1)C(=O)O)c1cc2ccccc2[nH]1 (centres unmarked) [Compound 48]
ASSAY_SYSTEM: CCK-1 receptors (Rattus norvegicus)
CLASS: Met
//
COMPOUND: O=C(Nc1ccccc1C(=O)NC(CSC12CC3CC(CC(C3)C1)C2)C(=O)O)c1cc2ccccc2[nH]1 (centres unmarked) [Compound 53]
ASSAY_SYSTEM: CCK-1 receptors (Rattus norvegicus)
CLASS: Met
//
COMPOUND: O=C(Nc1ccccc1C(=O)NC(Cc1ccccc1[N+](=O)[O-])C(=O)O)c1cc2ccccc2[nH]1 (centres unmarked) [Compound 17]
ASSAY_SYSTEM: CCK-1 receptors (Rattus norvegicus)
CLASS: Not met
//
COMPOUND: O=C(Nc1ccccc1C(=O)NC(Cc1c(Cl)cccc1Cl)C(=O)O)c1cc2ccccc2[nH]1 (centres unmarked) [Compound 15]
ASSAY_SYSTEM: CCK-1 receptors (Rattus norvegicus)
CLASS: Not met
//
COMPOUND: O=C(Nc1ccccc1C(=O)NC(Cc1ccccc1)C(=O)O)c1cc2ccccc2[nH]1 (racemic) [Compound 1]
ASSAY_SYSTEM: CCK-1 receptors (Rattus norvegicus)
CLASS: Not met
//
COMPOUND: CC(C)CCCC(NC(=O)c1ccccc1NC(=O)c1cc2ccccc2[nH]1)C(=O)O (centres unmarked) [Compound 44]
ASSAY_SYSTEM: CCK-1 receptors (Rattus norvegicus)
CLASS: Met
//
COMPOUND: O=C(Nc1ccccc1C(=O)NC(CCc1ccccc1[N+](=O)[O-])C(=O)O)c1cc2ccccc2[nH]1 (centres unmarked) [Compound 28]
ASSAY_SYSTEM: CCK-1 receptors (Rattus norvegicus)
CLASS: Not met
//
COMPOUND: CCCC(NC(=O)c1ccccc1NC(=O)c1cc2ccccc2n1C)C(=O)O (centres unmarked) [Compound 36]
ASSAY_SYSTEM: CCK-1 receptors (Rattus norvegicus)
CLASS: Not met
//
COMPOUND: O=C(Nc1ccccc1C(=O)NC(Cc1ccccc1)C(=O)O)c1cc2ccccc2o1 (centres unmarked) [Compound 9]
ASSAY_SYSTEM: CCK-1 receptors (Rattus norvegicus)
CLASS: Not met
//
COMPOUND: O=C(Nc1ccccc1C(=O)NC(CCCC1CCCCC1)C(=O)O)c1cc2ccccc2[nH]1 (centres unmarked) [Compound 50]
ASSAY_SYSTEM: CCK-1 receptors (Rattus norvegicus)
CLASS: Not met
//
COMPOUND: O=C(Nc1ccccc1C(=O)NC(CSc1ccccc1)C(=O)O)c1cc2ccccc2[nH]1 (centres unmarked) [Compound 52]
ASSAY_SYSTEM: CCK-1 receptors (Rattus norvegicus)
CLASS: Not met
//
COMPOUND: CCCCCC(NC(=O)c1ccccc1NC(=O)c1cc2ccccc2[nH]1)C(=O)O (centres unmarked) [Compound 38]
ASSAY_SYSTEM: CCK-1 receptors (Rattus norvegicus)
CLASS: Met
//
COMPOUND: Cc1ccccc1CCC(NC(=O)c1ccccc1NC(=O)c1cc2ccccc2n1C)C(=O)O (centres unmarked) [Compound 27]
ASSAY_SYSTEM: CCK-1 receptors (Rattus norvegicus)
CLASS: Met
//
COMPOUND: O=C(Nc1ccccc1C(=O)NC(Cc1ccccc1)C(=O)O)c1cc2ccc(F)cc2[nH]1 (centres unmarked) [Compound 7]
ASSAY_SYSTEM: CCK-1 receptors (Rattus norvegicus)
CLASS: Not met
//
COMPOUND: CCCCCCC(NC(=O)c1ccccc1NC(=O)c1cc2ccccc2[nH]1)C(=O)O (centres unmarked) [Compound 39]
ASSAY_SYSTEM: CCK-1 receptors (Rattus norvegicus)
CLASS: Met
//
COMPOUND: CCCCCCCC(NC(=O)c1ccccc1NC(=O)c1cc2ccccc2[nH]1)C(=O)O (centres unmarked) [Compound 40]
ASSAY_SYSTEM: CCK-1 receptors (Rattus norvegicus)
CLASS: Not met
//
COMPOUND: CC(C)CCCCC(NC(=O)c1ccccc1NC(=O)c1cc2ccccc2[nH]1)C(=O)O (centres unmarked) [Compound 45]
ASSAY_SYSTEM: CCK-1 receptors (Rattus norvegicus)
CLASS: Not met
//
COMPOUND: O=C(Nc1ccc(Cl)cc1C(=O)NC(Cc1ccccc1)C(=O)O)c1cc2ccccc2[nH]1 (centres unmarked) [Compound 4]
ASSAY_SYSTEM: CCK-1 receptors (Rattus norvegicus)
CLASS: Not met
//
COMPOUND: O=C(Nc1ccccc1C(=O)NC(C(=O)O)c1ccccc1)c1cc2ccccc2[nH]1 (centres unmarked) [Compound 33]
ASSAY_SYSTEM: CCK-1 receptors (Rattus norvegicus)
CLASS: Not met
//
COMPOUND: O=C(Nc1ccccc1C(=O)NC(Cc1ccccc1)C(=O)O)c1cc2ccccc2s1 (centres unmarked) [Compound 10]
ASSAY_SYSTEM: CCK-1 receptors (Rattus norvegicus)
CLASS: Not met
//
COMPOUND: CC(C)C(NC(=O)c1ccccc1NC(=O)c1cc2ccccc2[nH]1)C(=O)O (centres unmarked) [Compound 41]
ASSAY_SYSTEM: CCK-1 receptors (Rattus norvegicus)
CLASS: Not met
//
COMPOUND: O=C(Nc1ccccc1C(=O)N[C@H](Cc1ccccc1)C(=O)O)c1cc2ccccc2[nH]1 [Compound 2]
ASSAY_SYSTEM: CCK-1 receptors (Rattus norvegicus)
CLASS: Not met
//
COMPOUND: Cc1ccccc1CCC(NC(=O)c1ccccc1NC(=O)c1cc2ccccc2[nH]1)C(=O)O (centres unmarked) [Compound 25]
ASSAY_SYSTEM: CCK-1 receptors (Rattus norvegicus)
CLASS: Met
//
COMPOUND: COc1ccccc1CCC(NC(=O)c1ccccc1NC(=O)c1cc2ccccc2[nH]1)C(=O)O (centres unmarked) [Compound 30]
ASSAY_SYSTEM: CCK-1 receptors (Rattus norvegicus)
CLASS: Met
//
COMPOUND: Cn1c(C(=O)Nc2ccccc2C(=O)NC(Cc2ccccc2)C(=O)O)cc2ccccc21 (centres unmarked) [Compound 5]
ASSAY_SYSTEM: CCK-1 receptors (Rattus norvegicus)
CLASS: Not met

// provenance: patent US7294648B2
